Assay Details: Pharmacokinetic evaluation after intravenous injection or intragastric administration, plasma LC-MS/MS
Type: in vivo, SD rats
Experimental Conditions: male, Sprague-Dawley, rat, plasma, oral, male SD rats, intragastric vs intravenous; read-out: Bioavailability F
Measurement Kind: bioavailability (%)
Provide the reading as a plain figure in %.

- Compound: "O=C(O)CNC(=O)c1c(O)cc(C2CCc3ccccc3C2)n2ncnc12 (single isomer, unassigned)"
  U: "%"
  Value: 29.4

Continue with the compound presented below.
# lookup: bioavailability of O=C(O)CNC(=O)c1c(O)cc(CCc2ccccc2)n2ncnc12 [Enarodustat, reference compound] 30.1

###

Test system: human hepatocarcinoma cell line Hep3B
Assay Details: In-vitro erythropoietin (EPO)-inducing activity experiment (EPO ELISA, OD450)
Assay type: cell-based
Experimental Conditions: Hep3B cells, incubated 24 hours at 37°C
Measurement Kind: pEC50
Expect pEC50 as a plain number equal to -log10 of the molar concentration.

# lookup: pEC50 of O=C(O)CNC(=O)c1c(O)cc(C2CCc3ccccc3C2)n2ncnc12 (single isomer, unassigned) 5.38

###

Tested Target: PHD2 enzyme (Homo sapiens, UniProt Q9GZT9)
Construct: purchased Active motif
Sequence (Q9GZT9 whole entry, species assumed): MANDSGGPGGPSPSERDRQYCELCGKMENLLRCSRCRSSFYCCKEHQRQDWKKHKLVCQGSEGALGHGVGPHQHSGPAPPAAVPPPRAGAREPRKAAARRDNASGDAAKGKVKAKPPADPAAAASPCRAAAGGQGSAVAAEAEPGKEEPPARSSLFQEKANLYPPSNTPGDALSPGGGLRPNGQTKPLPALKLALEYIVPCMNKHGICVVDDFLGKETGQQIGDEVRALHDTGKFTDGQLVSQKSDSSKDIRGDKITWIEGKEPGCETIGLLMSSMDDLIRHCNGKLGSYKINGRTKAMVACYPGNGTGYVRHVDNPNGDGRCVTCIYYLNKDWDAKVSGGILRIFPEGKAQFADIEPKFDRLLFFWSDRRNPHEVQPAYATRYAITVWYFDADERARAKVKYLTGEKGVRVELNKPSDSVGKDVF
Assay Details: Detection of PHD2 enzyme activity inhibition (FITC-HIF1α tracer, mP read-out)
Type: biochemical
Experimental Conditions: test concentration from 10 µM, diluted 3 times into 10 concentrations; read-out: IC50
Measurement Kind: IC50
Reply with a number, then the unit it belongs to.

Solved entries:
- Compound: "O=C(O)CNC(=O)c1c(O)cc(Oc2ccc(F)cc2)n2ncnc12"
  IC50: "35.4 nM"
- Compound: "O=C(O)CNC(=O)c1c(O)cc(Oc2ccccc2)n2ncnc12"
  IC50: "19.8 nM"
- Compound: "O=C(O)CNC(=O)c1c(O)cc(C2CCc3ccccc3C2)n2ncnc12 (stereo not shown)"
  IC50: "34.3 nM"

Continue with the compound presented below.
# lookup: IC50 of O=C(O)CNC(=O)c1c(O)cc(Oc2cccc(N3CCOCC3)c2)n2ncnc12 34.1 nM

###

Test system: human hepatocarcinoma cell line Hep3B
Assay Details: In-vitro erythropoietin (EPO)-inducing activity experiment (EPO ELISA, OD450)
Type: cell-based
Experimental Conditions: Homo sapiens, Hep3B cells, incubated 24 hours at 37°C
Measurement Kind: EC50 (µM)
Provide the reading as a plain figure in µM.

# lookup: EC50 of O=C(O)CNC(=O)c1c(O)cc(CCc2ccccc2)n2ncnc12 [Enarodustat, reference compound] 15.1
